molecular target: BTK (Homo sapiens (Human), UniProt Q06187); assay: In vitro BTK kinase assay: BTK-POLYGAT-LS ASSAY
Sequence (Q06187 whole entry): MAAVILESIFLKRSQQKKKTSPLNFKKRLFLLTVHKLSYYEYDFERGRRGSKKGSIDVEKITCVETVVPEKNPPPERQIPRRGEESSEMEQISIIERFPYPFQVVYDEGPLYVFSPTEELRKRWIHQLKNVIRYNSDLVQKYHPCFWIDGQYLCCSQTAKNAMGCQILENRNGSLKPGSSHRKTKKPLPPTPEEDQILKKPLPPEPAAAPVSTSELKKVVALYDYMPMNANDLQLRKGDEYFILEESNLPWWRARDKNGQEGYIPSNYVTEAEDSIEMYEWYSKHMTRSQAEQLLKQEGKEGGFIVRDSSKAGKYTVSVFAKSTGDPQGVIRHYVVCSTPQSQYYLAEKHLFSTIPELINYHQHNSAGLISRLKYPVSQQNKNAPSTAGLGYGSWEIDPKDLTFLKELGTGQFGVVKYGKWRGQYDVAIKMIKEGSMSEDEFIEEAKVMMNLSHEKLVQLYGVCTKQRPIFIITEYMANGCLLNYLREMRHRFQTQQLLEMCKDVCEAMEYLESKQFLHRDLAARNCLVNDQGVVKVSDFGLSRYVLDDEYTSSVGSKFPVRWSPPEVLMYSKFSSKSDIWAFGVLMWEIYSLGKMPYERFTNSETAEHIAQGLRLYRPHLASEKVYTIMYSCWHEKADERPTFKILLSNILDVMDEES
pIC50: −log10 of the molar value.
measured metric: pIC50

The examples below pair each entry with its known result.
* CCNc1ncnc(N2CCC[C@@H](N3CCCC(Nc4cc(F)cc(Cl)c4)C3=O)C2)c1F (some centres unmarked) | 5.00 to 6.00
* O=C1C(Nc2ccccc2)CCN1[C@@H]1CCCN(c2ncnc3[nH]ccc23)C1 (some centres unmarked) | 6.00 to 7.00
* O=C(Nc1cccc(C2CCCN(c3ncnc4[nH]ccc34)C2)c1)[C@H](O)c1ccccc1 (some centres unmarked) | 5.00 to 6.00

Please report pIC50 with BTK (Homo sapiens (Human), UniProt Q06187) for item O=C1Cc2c(ncnc2N2CCCC(c3cccc(NC(=O)Nc4ccccc4)c3)C2)N1 (centres unmarked) . 5.00 to 6.00

Please report pIC50 with BTK (Homo sapiens (Human), UniProt Q06187) for item O=C(Nc1cccc(C2CCCN(c3ncnc4[nH]ccc34)C2)c1)Nc1ccccc1OC(F)F (centres unmarked) . 5.00 to 6.00

Please report pIC50 with BTK (Homo sapiens (Human), UniProt Q06187) for item CC(C)CCNC(=O)Nc1cccc(C2CCCN(c3ncnc4[nH]ccc34)C2)c1 (centres unmarked) . 5.00 to 6.00

Please report pIC50 with BTK (Homo sapiens (Human), UniProt Q06187) for item O=C(Nc1cccc(C2CCCN(c3ncnc4[nH]ccc34)C2)c1)NC1CCC1 (centres unmarked) . 5.00 to 6.00

Please report pIC50 with BTK (Homo sapiens (Human), UniProt Q06187) for item O=C(Nc1cccc(C2CCCN(c3ncnc4[nH]ccc34)C2)c1)Nc1ccccc1N1C[C@@H](O)[C@H](O)C1 (some centres unmarked) . 6.00 to 7.00

All figures here come from patent US9790229B2.
